For each entry below, report its EC50 value.
target: human GABABR1aR2a (Homo sapiens, UniProt O75899+Q9UBS5); construct: expressed in transfected cells; assay: Intracellular Ca2+ mobilization assay in CHO-GABABR1aR2a-Gα16 cell (FLIPR); type: cell-based; conditions: enhancer concentration-response in presence of 10 nM GABA (EC10)
Sequence (Q9UBS5 15-961 limits assumed): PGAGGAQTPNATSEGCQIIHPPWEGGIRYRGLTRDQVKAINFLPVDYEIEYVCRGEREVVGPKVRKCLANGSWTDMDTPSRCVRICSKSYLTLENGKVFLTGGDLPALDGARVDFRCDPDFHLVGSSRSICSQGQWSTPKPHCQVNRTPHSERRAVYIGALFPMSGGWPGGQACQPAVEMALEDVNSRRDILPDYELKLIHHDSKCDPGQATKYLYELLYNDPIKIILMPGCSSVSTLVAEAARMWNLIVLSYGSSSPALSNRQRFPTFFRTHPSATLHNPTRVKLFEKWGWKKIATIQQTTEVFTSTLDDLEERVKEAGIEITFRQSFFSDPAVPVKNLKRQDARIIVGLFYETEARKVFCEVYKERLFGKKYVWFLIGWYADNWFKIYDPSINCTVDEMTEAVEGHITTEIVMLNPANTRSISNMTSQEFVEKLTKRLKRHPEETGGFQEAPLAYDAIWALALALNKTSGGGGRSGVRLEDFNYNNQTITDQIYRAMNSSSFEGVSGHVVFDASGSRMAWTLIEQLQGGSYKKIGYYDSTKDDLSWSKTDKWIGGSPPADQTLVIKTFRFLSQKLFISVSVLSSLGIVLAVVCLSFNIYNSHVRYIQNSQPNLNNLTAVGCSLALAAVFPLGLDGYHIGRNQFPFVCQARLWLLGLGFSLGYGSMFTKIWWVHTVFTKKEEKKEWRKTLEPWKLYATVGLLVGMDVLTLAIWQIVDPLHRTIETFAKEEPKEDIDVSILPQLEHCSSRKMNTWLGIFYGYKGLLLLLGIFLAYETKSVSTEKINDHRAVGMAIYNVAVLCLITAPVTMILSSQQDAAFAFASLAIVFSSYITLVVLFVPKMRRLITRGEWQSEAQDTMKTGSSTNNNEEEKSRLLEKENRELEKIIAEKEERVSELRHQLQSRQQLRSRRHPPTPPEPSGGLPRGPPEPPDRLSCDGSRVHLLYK
Sequence (O75899 42-941): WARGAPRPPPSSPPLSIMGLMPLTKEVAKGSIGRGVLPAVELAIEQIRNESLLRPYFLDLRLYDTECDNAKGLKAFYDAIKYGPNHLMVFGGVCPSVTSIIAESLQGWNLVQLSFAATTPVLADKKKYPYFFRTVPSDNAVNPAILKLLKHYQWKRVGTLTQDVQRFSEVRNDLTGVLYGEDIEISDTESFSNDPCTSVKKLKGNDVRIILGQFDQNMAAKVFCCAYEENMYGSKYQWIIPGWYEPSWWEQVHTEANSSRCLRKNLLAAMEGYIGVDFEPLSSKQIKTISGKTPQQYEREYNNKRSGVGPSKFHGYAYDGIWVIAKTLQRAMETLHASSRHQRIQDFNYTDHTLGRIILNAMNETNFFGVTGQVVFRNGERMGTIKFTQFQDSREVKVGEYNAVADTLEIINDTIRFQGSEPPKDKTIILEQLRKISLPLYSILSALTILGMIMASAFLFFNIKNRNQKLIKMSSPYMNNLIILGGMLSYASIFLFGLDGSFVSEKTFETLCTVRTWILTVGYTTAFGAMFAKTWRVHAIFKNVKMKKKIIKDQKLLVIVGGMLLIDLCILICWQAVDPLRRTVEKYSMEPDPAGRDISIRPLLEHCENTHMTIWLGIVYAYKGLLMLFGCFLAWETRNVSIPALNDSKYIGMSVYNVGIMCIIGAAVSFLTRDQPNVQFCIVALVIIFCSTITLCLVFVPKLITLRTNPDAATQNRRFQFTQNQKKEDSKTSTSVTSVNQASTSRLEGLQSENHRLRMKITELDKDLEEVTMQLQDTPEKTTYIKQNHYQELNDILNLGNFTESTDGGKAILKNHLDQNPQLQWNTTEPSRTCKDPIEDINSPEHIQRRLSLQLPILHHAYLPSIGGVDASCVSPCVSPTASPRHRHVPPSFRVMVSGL

Look over these answered cases.
Cc1nc2ccc(OC(F)(F)F)cc2c(-c2ccccc2)c1C(=O)C(F)(F)F | 0.8 µM
Cc1nc2cc3c(cc2c(-c2ccccc2)c1C(=O)C(F)(F)F)OC(F)(F)O3 | 0.9 µM
Cc1nc2ccc(Br)cc2c(-c2ccc(F)cc2)c1C(=O)C1CC1 | 2.2 µM
Cc1nc2ccc(Br)cc2c(-c2ccccc2)c1C(=O)C(F)(F)F | 0.8 µM
CC(=O)c1c(C)nc2ccc(OC(F)(F)F)cc2c1-c1cccc(Cl)c1 | 1.6 µM

API: the following record is the query input.
Task item: Reported EC50, compound `Cc1nc2ccc(N3CCCCC3)cc2c(-c2ccc(F)cc2)c1C(=O)C(F)(F)F` : ____
Reply: 0.33 µM
